Where do these numbers come from? They come from patent US20260297081A1.

Subject Of Test: CDK4 (Homo sapiens, UniProt P11802+Q16531)
Sequence (P11802 2-303 limits assumed): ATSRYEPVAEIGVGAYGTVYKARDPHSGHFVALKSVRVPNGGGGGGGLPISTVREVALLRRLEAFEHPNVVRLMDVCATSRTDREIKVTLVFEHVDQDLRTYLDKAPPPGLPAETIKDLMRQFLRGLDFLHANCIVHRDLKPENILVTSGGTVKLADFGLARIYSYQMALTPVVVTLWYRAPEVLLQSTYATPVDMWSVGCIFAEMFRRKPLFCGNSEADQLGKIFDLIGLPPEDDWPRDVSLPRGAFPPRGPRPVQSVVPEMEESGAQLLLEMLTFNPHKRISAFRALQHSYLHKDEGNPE
Sequence (P24385 whole entry partner): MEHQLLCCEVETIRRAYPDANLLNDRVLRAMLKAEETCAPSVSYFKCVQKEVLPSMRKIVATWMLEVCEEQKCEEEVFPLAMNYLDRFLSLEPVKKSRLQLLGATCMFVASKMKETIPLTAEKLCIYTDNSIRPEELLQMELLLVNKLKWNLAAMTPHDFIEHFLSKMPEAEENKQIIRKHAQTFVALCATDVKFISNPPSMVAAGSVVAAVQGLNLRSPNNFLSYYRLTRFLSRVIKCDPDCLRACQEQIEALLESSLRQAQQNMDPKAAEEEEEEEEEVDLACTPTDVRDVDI
Sequence (Q16531 2-1140 limits assumed): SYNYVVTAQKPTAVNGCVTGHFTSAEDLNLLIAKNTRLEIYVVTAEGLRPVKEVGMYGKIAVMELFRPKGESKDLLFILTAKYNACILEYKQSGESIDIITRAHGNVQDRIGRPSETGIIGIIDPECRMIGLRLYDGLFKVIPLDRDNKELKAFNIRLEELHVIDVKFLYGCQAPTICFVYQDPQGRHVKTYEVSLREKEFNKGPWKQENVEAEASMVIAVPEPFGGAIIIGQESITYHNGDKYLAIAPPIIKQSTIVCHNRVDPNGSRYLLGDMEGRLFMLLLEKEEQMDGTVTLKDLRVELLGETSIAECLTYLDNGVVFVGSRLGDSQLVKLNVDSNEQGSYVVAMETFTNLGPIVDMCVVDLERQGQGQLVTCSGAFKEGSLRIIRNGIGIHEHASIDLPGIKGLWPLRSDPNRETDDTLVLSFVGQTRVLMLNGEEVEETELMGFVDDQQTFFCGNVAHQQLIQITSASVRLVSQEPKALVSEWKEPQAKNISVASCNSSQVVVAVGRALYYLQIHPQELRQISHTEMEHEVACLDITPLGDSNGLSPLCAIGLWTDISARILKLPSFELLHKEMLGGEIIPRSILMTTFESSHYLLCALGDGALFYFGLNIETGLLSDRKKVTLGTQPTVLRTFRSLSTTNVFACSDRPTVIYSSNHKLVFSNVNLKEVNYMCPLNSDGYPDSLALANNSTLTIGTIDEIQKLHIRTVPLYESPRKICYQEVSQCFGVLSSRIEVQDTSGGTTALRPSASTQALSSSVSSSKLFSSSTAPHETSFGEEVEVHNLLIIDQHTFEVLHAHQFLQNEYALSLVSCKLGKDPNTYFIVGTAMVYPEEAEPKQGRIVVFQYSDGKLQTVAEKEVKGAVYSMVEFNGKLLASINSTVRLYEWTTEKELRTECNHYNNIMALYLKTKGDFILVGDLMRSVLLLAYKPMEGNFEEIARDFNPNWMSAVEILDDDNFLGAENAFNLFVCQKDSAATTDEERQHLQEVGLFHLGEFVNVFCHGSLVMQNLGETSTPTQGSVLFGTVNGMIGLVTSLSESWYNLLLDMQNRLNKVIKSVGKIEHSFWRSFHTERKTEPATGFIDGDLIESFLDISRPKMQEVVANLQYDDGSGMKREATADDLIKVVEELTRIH
Method Notes: CDK4 percentage degradation in Calu-1 cells (Table 6)
Format: cell-based
Design: Cells that express cyclin D1-3 and CDK4/6 proteins were treated with heterobifunctional compounds; endogenous in cells; host or cells: Calu-1
Measurement Parameters: 40 nM, 16 hours
Reported values of inhibition at 0.04 µM for individual entries

Sample records with inhibition at 0.04 µM:
Compound | inhibition at 0.04 µM
CNc1ccc(C(=O)Nc2ccc(N(C)C)nn2)c(NC(C)CCCCNC(=O)CN2CCN(c3ccc(Nc4ncc5c(C)c(C(C)=O)c(=O)n(C6CCCC6)c5n4)nc3)CC2)n1 (centres unmarked) [CPD-29] | 50 to 80%
CNc1ccc(C(=O)Nc2ccc(N(C)C)nn2)c(NC2CCC(NC(=O)CN3CCN(c4ccc(Nc5ncc6c(C)c(C(C)=O)c(=O)n(C7CCCC7)c6n5)nc4)CC3)CC2)n1 (centres unmarked) [CPD-130] | 50 to 80%
CNc1ccc(C(=O)Nc2ccc(N(C)C)nn2)c(NC2CC(C(=O)N3CCC(N4CCN(c5ccc(Nc6ncc7c(C)c(C(C)=O)c(=O)n(C8CCCC8)c7n6)nc5)CC4)C3)C2)n1 (centres unmarked) [CPD-333] | < 30%

[Q] Field request: inhibition at 0.04 µM | item: CNc1ccc(C(=O)Nc2cccc(C3CC3)n2)c(NC2CC3(CC(NC(=O)CN4CCN(c5ccc(Nc6ncc7c(C)c(C(C)=O)c(=O)n(C8CCCC8)c7n6)nc5)CC4)C3)C2)n1 (centres unmarked) [CPD-72]
[A] 50 to 80%

[Q] Field request: inhibition at 0.04 µM | item: CC(=O)c1c(C)c2cnc(Nc3ccc(N4CCN(CC(=O)NCCCCCNc5nc(C)ccc5C(=O)Nc5nc(C)c(C)s5)CC4)cn3)nc2n(C2CCCC2)c1=O [CPD-3]
[A] 50 to 80%

* * *

Subject Of Test: CDK4 (Homo sapiens, UniProt P11802+Q16531)
Method Notes: CDK4 percentage degradation in Calu-1 cells (Table 6)
Assay type: cell-based
Parameters: Cells that express cyclin D1-3 and CDK4/6 proteins were treated with heterobifunctional compounds; endogenous in cells; host or cells: Calu-1
Measurement Parameters: 40 nM, 16 hours
Reported values of inhibition at 0.04 µM for individual entries

[Q] What measured inhibition at 0.04 µM is associated with CNc1ccc(C(=O)Nc2ccc(N(C)C)nn2)c(NC2CC3(CC(CCC(=O)N4CCN(c5ccc(Nc6ncc7c(C)c(C(C)=O)c(=O)n(C8CCCC8)c7n6)nc5)CC4)C3)C2)n1 (centres unmarked) on CDK4 (Homo sapiens, UniProt P11802+Q16531)?
[A] 30 to 50%

[Q] What measured inhibition at 0.04 µM is associated with CC(=O)c1c(C)c2cnc(Nc3ccc(N4CCN(CC5(C(=O)N6CC7(CC(Nc8nc(NC(C)C)ccc8C(=O)Nc8ccc(N(C)C)nn8)C7)C6)CC5)CC4)cn3)nc2n(C2CCCC2)c1=O on CDK4 (Homo sapiens, UniProt P11802+Q16531)?
[A] 30 to 50%

[Q] What measured inhibition at 0.04 µM is associated with CC(=O)c1c(C)c2cnc(Nc3ccc(N4CCN(CC(=O)NCCCCCNc5nc(NC6CCC6)ccc5C(=O)Nc5ccc(N(C)C)nn5)CC4)cn3)nc2n(C2CCCC2)c1=O on CDK4 (Homo sapiens, UniProt P11802+Q16531)?
[A] 50 to 80%

[Q] What measured inhibition at 0.04 µM is associated with CNc1ccc(C(=O)Nc2ccc(N(C)C)nn2)c(NC2CC3(C2)CN(C(=O)CCN2CCN(c4ccc(Nc5ncc6c(C)c(C(C)=O)c(=O)n(C7CCCC7)c6n5)nc4)CC2)C3)n1 on CDK4 (Homo sapiens, UniProt P11802+Q16531)?
[A] > 80%

[Q] What measured inhibition at 0.04 µM is associated with CC(=O)c1c(C)c2cnc(Nc3ccc(N4CCN(CC(=O)NC5CC6(C5)CC(Nc5nc(C#N)ccc5C(=O)Nc5cccc(C7CC7)n5)C6)CC4)cn3)nc2n(C2CCCC2)c1=O (centres unmarked) on CDK4 (Homo sapiens, UniProt P11802+Q16531)?
[A] < 30%
